- TGT: cdk1/cyclin B (CDC2) (Homo sapiens, UniProt P06493)
- Sequence (P06493 whole entry, species assumed): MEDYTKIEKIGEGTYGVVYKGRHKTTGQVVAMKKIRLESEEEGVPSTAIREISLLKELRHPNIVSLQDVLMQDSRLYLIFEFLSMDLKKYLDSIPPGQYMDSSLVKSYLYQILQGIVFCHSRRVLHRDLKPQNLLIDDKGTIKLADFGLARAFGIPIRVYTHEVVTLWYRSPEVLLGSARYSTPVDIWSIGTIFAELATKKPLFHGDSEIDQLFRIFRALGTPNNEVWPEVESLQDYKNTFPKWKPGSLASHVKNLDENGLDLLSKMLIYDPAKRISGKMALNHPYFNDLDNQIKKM
- Sequence (P14635 whole entry partner, species assumed): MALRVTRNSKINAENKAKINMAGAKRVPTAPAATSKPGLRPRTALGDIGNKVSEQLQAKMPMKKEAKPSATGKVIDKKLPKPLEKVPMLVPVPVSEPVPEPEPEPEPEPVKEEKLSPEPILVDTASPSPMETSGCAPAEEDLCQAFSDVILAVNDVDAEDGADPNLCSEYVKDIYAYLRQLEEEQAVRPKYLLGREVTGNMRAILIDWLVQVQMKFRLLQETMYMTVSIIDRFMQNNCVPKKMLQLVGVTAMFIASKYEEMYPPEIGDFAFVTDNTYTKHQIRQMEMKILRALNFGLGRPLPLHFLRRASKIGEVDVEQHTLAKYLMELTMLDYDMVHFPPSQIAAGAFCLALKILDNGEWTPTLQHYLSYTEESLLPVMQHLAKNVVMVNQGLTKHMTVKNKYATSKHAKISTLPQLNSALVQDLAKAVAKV
- EXPERIMENT_NOTES: CDK inhibition assay, cdk1/cyclin B (CDC2) kinase, histone phosphorylation
- Format: biochemical
pIC50: −log10 of the molar value.
pIC50 vs 8: at or above is 1, below is -1.

compound="Cc1n[nH]c2c(NCc3ccccc3)nc(NCCO)nc12 [2-hydroxyethylamino; benzylamino; methyl]" label_class=-1
compound=Cc1n[nH]c2c(NCc3ccc(Cl)c(N)c3N)nc(NCCO)nc12 label_class=-1
compound=CC(C)c1n[nH]c2c(Nc3ccc(Br)cc3)nc(N[C@@H](CO)C(C)C)nc12 label_class=1
compound=Cc1n[nH]c2c(NCc3c(N)cccc3Cl)nc(NCCO)nc12 label_class=-1
compound=CC[C@H](CO)Nc1nc(N(C)CCc2ccc(O)c(O)c2)c2[nH]nc(C(C)C)c2n1 label_class=-1
compound=CC(C)c1n[nH]c2c(Nc3cccc(Cl)c3)nc(NCCCO)nc12 label_class=-1
compound=CC[C@H](CO)Nc1nc(NCc2cccc(OC(C)=O)c2)c2[nH]nc(C(C)C)c2n1 label_class=-1
compound=Cc1cccc(CNc2nc(N[C@@H](CO)C(C)C)nc3c(C(C)C)n[nH]c23)c1O label_class=1
compound=CC[C@H](CO)Nc1nc(NCc2ccc(Cl)c(N)c2N)c2[nH]nc(C(C)C)c2n1 label_class=-1
compound=CC[C@H](CO)Nc1nc(NCc2ccc(Cl)c(N)c2)c2[nH]nc(C(C)C)c2n1 label_class=-1
compound=COc1cc(O)c(CNc2nc(N[C@@H](CO)C(C)C)nc3c(C(C)C)n[nH]c23)c(O)c1 label_class=1
compound="Cc1n[nH]c2c(NCc3ccccc3)nc(NC3CCC(N)CC3)nc12 (centres unmarked)" label_class=-1
compound=CC(C)c1n[nH]c2c(Nc3ccc(Cl)c(N)c3)nc(N[C@@H](CO)C(C)C)nc12 label_class=1
compound=CC[C@H](CO)Nc1nc(NCc2ccc(OC)c(O)c2O)c2[nH]nc(C(C)C)c2n1 label_class=1
compound=CC(C)c1n[nH]c2c(Nc3cccc(Cl)c3)nc(N(CCO)CCO)nc12 label_class=-1
compound=CC(C)c1n[nH]c2c(NCc3cccc(Cl)c3O)nc(N[C@@H](CO)C(C)C)nc12 label_class=1
compound=CC(=O)Oc1cccc(CNc2nc(N[C@@H](CO)C(C)C)nc3c(C(C)C)n[nH]c23)c1 label_class=-1

###

- TGT: IκB-α kinase
- EXPERIMENT_NOTES: IκB-α kinase inhibition, in vitro kinase assay
pIC50: −log10 of the molar value.
QUANTITY_NAME: pIC50

given_smiles=Cc1cccc(CNc2nc(NCCO)nc3c(C)n[nH]c23)c1O quantity_name=pIC50 value_reported=7.52
given_smiles=CC[C@H](CO)Nc1nc(Nc2cc(N)cc(Cl)c2)c2[nH]nc(C(C)C)c2n1 quantity_name=pIC50 value_reported=7.70
given_smiles=CC(=O)c1ccccc1CNc1nc(NCCO)nc2c(C)n[nH]c12 quantity_name=pIC50 value_reported=7.30
given_smiles=CC(=O)Oc1ccccc1CNc1nc(NCCO)nc2c(C)n[nH]c12 quantity_name=pIC50 value_reported=5.92
given_smiles=COc1cc(O)c(CNc2nc(NCCO)nc3c(C)n[nH]c23)cc1O quantity_name=pIC50 value_reported=7.82
given_smiles=CC(C)c1n[nH]c2c(Nc3ccc(C(=O)O)c(Cl)c3)nc(N[C@@H](CO)C(C)C)nc12 quantity_name=pIC50 value_reported=8.70
given_smiles=Cc1n[nH]c2c(NCc3ccccc3)nc(N[C@@H](CO)C(C)C)nc12 quantity_name=pIC50 value_reported=7.70
given_smiles=CC[C@H](CO)Nc1nc(NCc2ccccc2C(C)=O)c2[nH]nc(C(C)C)c2n1 quantity_name=pIC50 value_reported=7.82
given_smiles=Cc1n[nH]c2c(Nc3ccc(Cl)c(C(=O)O)c3)nc(NCCO)nc12 quantity_name=pIC50 value_reported=8.00
given_smiles=Cc1n[nH]c2c(NCc3c(N)cccc3Cl)nc(NCCO)nc12 quantity_name=pIC50 value_reported=7.10
